Here, each record is paired with measured Reduction data.
Tested on: Acanthocheilonema viteae
assay_procedure: Compound was tested in vivo for anti-filarial activity against A. viteae through oral route of administration at 200 mg/kg for 5 days and microfilaricidal response was observed
Assay type: functional
The answer is to be given in %; state only the numeric part.

Examples with their reported Reduction follow.
CCCCCCNc1ccccc1	58
CCCCCCCNc1ccccc1	69
CCCCCCNC1CCCCC1	0
CCCCN(CCCC)C1CCCCC1	93
CCCCCCNc1ccc(F)c(Cl)c1	50

Input: Item CCCCCCNc1ccc(F)cc1 with Acanthocheilonema viteae - Reduction?
Output: 0

Input: Notebook: pull reported Reduction for Acanthocheilonema viteae, entry CCCCN(CCCC)c1ccccc1
Output: 77

Input: What is its Reduction for Acanthocheilonema viteae? Entry: CCCCN(CCCC)c1ccc(F)cc1
Output: 81

Input: Any idea what Reduction came out for CCCCNc1ccc(F)c(Cl)c1 on Acanthocheilonema viteae?
Output: 32

---

System: Acanthocheilonema viteae
assay_procedure: Compound was tested in vivo for anti-filarial activity against A. viteae through oral route of administration at 200 mg/kg for 5 days and macrofilaricidal response was observed
Type: functional
parameter_measured: Reduction (%)
Expressed in %, but write only the number.

Example entries and their recorded answers appear below.
CCCCN(CCCC)C1CCCCC1	0
CCCCCCCNc1ccccc1	0
CCCCNc1ccc(F)c(Cl)c1	0
CCCCCCNc1ccc(F)cc1	50
CCCCCCNC1CCCCC1	100

Input: Param readout = Reduction; param system = Acanthocheilonema viteae; param query = CCCCCCNc1ccc(F)c(Cl)c1 ; response: value
Output: 88

Input: Notebook: pull reported Reduction for Acanthocheilonema viteae, entry CCCCN(CCCC)c1ccccc1
Output: 0

Input: Give Reduction (Acanthocheilonema viteae) of the following molecule: CCCCN(CCCC)c1ccc(F)cc1
Output: 0

Input: Checklist item: Reduction tested on Acanthocheilonema viteae, entry CCCCCCNc1ccccc1 , value?
Output: 50
